Provenance of the data: patent US7700637B2

The molecules listed here are annotated with their melting point.

Cc1oc(-c2ccc(C(F)(F)F)cc2)nc1COc1ccc(S(=O)(=O)Nc2ccccc2C(=O)O)cc1 [Compd 4-8]	195 °C
Cc1ccc(NS(=O)(=O)c2ccc(OCc3nc(-c4ccccc4)oc3C)cc2)c(C(=O)O)c1 [Compd 4-17]	185 to 187 °C
CCOc1ccc(CC(=O)Nc2ccc(S(=O)(=O)Nc3ccccc3C(=O)O)cc2)cc1 [Example 9]	241 to 242 °C
Cc1oc(-c2ccccc2)nc1COc1ccc(S(=O)(=O)Nc2cc3ccccc3cc2C(=O)O)cc1 [Compd 4-26]	234 to 236 °C

Q. For the molecule shown here, COc1cc(NS(=O)(=O)c2ccc(OCc3nc(-c4ccccc4)oc3C)cc2)c(C(=O)O)cc1OC [Compd 4-24] , give the reported melting point.
A. 206 to 207 °C

Q. Moving on to Cc1oc(-c2ccccc2)nc1COc1ccc(COc2cc(Cl)ccc2C(=O)O)cc1 [Compd 21-11]
A. 155 to 156 °C

Q. Moving on to Cc1oc(-c2ccccc2)nc1COCc1cccc(COc2cc(Cl)ccc2C(=O)O)c1 [Example 18]
A. 137 °C

Q. Moving on to Cc1oc(-c2ccccc2)nc1COCc1ccc(COc2cc(Cl)ccc2C(=O)O)cc1 [Compd 21-19]
A. 151 °C

Q. Moving on to Cc1oc(-c2ccccc2)nc1COc1ccc(S(=O)(=O)Nc2cc(-c3ccccc3)ccc2C(=O)O)cc1 [Compd 4-2]
A. 75 to 77 °C

Q. Moving on to COc1cccc(OCc2ccc(OCCc3nc(-c4ccccc4)oc3C)cc2)c1C(=O)O [Compd 21-10]
A. 183 to 184 °C
